Reference for the values: patent US7468281B2

Reported Enrichment (average of 3 replicates) by item:
# assay protocol: LPME of seven basic drugs with different hollow fibres (polypropylene, polysulfone)
# Type: physicochemical
# measurement conditions: hollow fibre Polysulfone, 500 μm ID; hexyl ether; 0.01 M hydrochloric acid acceptor

{"compound": "CC(N)Cc1ccccc1 (stereo not shown) [amphetamine]", "Enrichment (average of 3 replicates)": 22}
{"compound": "CN1CCN(C(c2ccccc2)c2ccc(Cl)cc2)CC1 (stereo not shown) [chlorcyclizine]", "Enrichment (average of 3 replicates)": 110}
{"compound": "CCC(=O)C(CC(C)N(C)C)(c1ccccc1)c1ccccc1 (stereo not shown) [methadone]", "Enrichment (average of 3 replicates)": 139}
{"compound": "CN[C@@H](C)Cc1ccccc1 [methamphetamine]", "Enrichment (average of 3 replicates)": 46}
